- Species: Mus musculus
- method: Cytotoxicity against Balb/c mouse T cells assessed as decrease in cell viability at 100 uM after 48 hrs by MTT assay
- Format: toxicity, cell-based
measurement-kind: Activity

Illustrative cases are given below, each with its answer.
- entry-smiles: "CC(=O)Oc1cc(C)c2c(c1C)C[C@H]([C@@H](C)C(=O)OCc1cn(Cc3ccc(Br)cc3)nn1)CC2"
  measurement-kind: "Activity"
  result: "Toxic"
- entry-smiles: "CC(=O)Oc1cc(C)c2c(c1C)C[C@H]([C@@H](C)C(=O)OCc1cn(-c3ccc(Cl)cc3)nn1)CC2"
  measurement-kind: "Activity"
  result: "Toxic"
- entry-smiles: "CC(=O)Oc1cc(C)c2c(c1C)[C@@H]1OC(=O)[C@@H](C)[C@@H]1CC2"
  measurement-kind: "Activity"
  result: "Non-Toxic"
- entry-smiles: "CC(=O)Oc1cc(C)c2c(c1C)C[C@H]([C@@H](C)C(=O)OCc1cn(-c3ccc(Cl)c(Cl)c3)nn1)CC2"
  measurement-kind: "Activity"
  result: "Toxic"
- entry-smiles: "CCCCn1cc(COC(=O)[C@H](C)[C@@H]2CCc3c(C)cc(OC(C)=O)c(C)c3C2)nn1"
  measurement-kind: "Activity"
  result: "Toxic"

[ask] Please look up its Activity: CC(=O)Oc1cc(C)c2c(c1C)C[C@H]([C@@H](C)C(=O)OCc1cn(-c3ccccc3CO)nn1)CC2
[reply] Toxic

[ask] Please look up its Activity: CC(=O)Oc1cc(C)c2c(c1C)C[C@H]([C@@H](C)C(=O)OCc1cn(-c3ccc(CO)cc3)nn1)CC2
[reply] Toxic

[ask] Please look up its Activity: CC(=O)Oc1cc(C)c2c(c1C)C[C@H]([C@@H](C)C(=O)OCc1cn(-c3ccccc3F)nn1)CC2
[reply] Non-Toxic

[ask] Please look up its Activity: CC(=O)Oc1cc(C)c2c(c1C)C[C@H]([C@@H](C)C(=O)OCc1cn(-c3ccccc3C#N)nn1)CC2
[reply] Toxic

[ask] Please look up its Activity: COc1ccccc1-n1cc(COC(=O)[C@H](C)[C@@H]2CCc3c(C)cc(OC(C)=O)c(C)c3C2)nn1
[reply] Non-Toxic

[ask] Please look up its Activity: CC(=O)Oc1cc(C)c2c(c1C)C[C@H]([C@@H](C)C(=O)OCc1cn(-c3ccc(CC#N)cc3)nn1)CC2
[reply] Toxic

###

Exercise: state measured inhibition at 10 µM for each of the molecules provided.
- method: Immunosuppressive activity in Balb/c mouse B cells assessed as inhibition of LPS-induced cell proliferation at 10 uM after 48 hrs by MTT assay relative to control
- Assay type: functional
Quick reminder: number only, in %, skip the unit.

[ask] Please look up its inhibition at 10 µM: CC1=C2[C@H]3OC(=O)[C@@H](C)[C@@H]3CC[C@@]2(C)C=CC1=O [SANTONIN]
[reply] 26.8

[ask] Please look up its inhibition at 10 µM: CC(=O)Oc1cc(C)c2c(c1C)C[C@H]([C@@H](C)C(=O)OCc1cn(-c3cc(I)ccc3C)nn1)CC2
[reply] 34.6

[ask] Please look up its inhibition at 10 µM: CC(=O)Oc1cc(C)c2c(c1C)C[C@H]([C@@H](C)C(=O)OCc1cn(-c3ccc(C(=O)c4ccccc4)cc3)nn1)CC2
[reply] 75

[ask] Please look up its inhibition at 10 µM: CC(=O)Oc1cc(C)c2c(c1C)C[C@H]([C@@H](C)C(=O)OCc1cn(-c3ccccc3Cl)nn1)CC2
[reply] 30.3

[ask] Please look up its inhibition at 10 µM: CC(=O)Oc1cc(C)c2c(c1C)C[C@H]([C@@H](C)C(=O)OCc1cn(-c3ccc(O)cc3C)nn1)CC2
[reply] 77.1

[ask] Please look up its inhibition at 10 µM: CC(=O)Oc1cc(C)c2c(c1C)C[C@H]([C@@H](C)C(=O)OCc1cn(-c3ccccc3C#N)nn1)CC2
[reply] 26.3

[ask] Please look up its inhibition at 10 µM: CCCCn1cc(COC(=O)[C@H](C)[C@@H]2CCc3c(C)cc(OC(C)=O)c(C)c3C2)nn1
[reply] 29.9

[ask] Please look up its inhibition at 10 µM: CCCCCn1cc(COC(=O)[C@H](C)[C@@H]2CCc3c(C)cc(OC(C)=O)c(C)c3C2)nn1
[reply] 41.9

[ask] Please look up its inhibition at 10 µM: CC(=O)Oc1cc(C)c2c(c1C)C[C@H]([C@@H](C)C(=O)OCc1cn(Cc3ccccc3)nn1)CC2
[reply] 33.5

[ask] Please look up its inhibition at 10 µM: CC(=O)Oc1cc(C)c2c(c1C)C[C@H]([C@@H](C)C(=O)OCc1cn(-c3ccc(Cl)nc3)nn1)CC2
[reply] 24

[ask] Please look up its inhibition at 10 µM: CC(=O)Oc1cc(C)c2c(c1C)C[C@H]([C@@H](C)C(=O)OCc1cn(-c3ccc(Cl)c(Cl)c3)nn1)CC2
[reply] 50.5

[ask] Please look up its inhibition at 10 µM: COc1cc(-n2cc(COC(=O)[C@H](C)[C@@H]3CCc4c(C)cc(OC(C)=O)c(C)c4C3)nn2)cc(OC)c1OC
[reply] 22.1

[ask] Please look up its inhibition at 10 µM: CC(=O)Oc1cc(C)c2c(c1C)C[C@H]([C@@H](C)C(=O)OCc1cn(-c3ccccc3CO)nn1)CC2
[reply] 64.1

[ask] Please look up its inhibition at 10 µM: CC(=O)Oc1cc(C)c2c(c1C)C[C@H]([C@@H](C)C(=O)OCc1cn(-c3ccc(C#N)cc3)nn1)CC2
[reply] 80.9

[ask] Please look up its inhibition at 10 µM: CC(=O)Oc1cc(C)c2c(c1C)C[C@H]([C@@H](C)C(=O)O)CC2
[reply] 57.2

[ask] Please look up its inhibition at 10 µM: CC(=O)Oc1cc(C)c2c(c1C)C[C@H]([C@@H](C)C(=O)OCc1cn(-c3cccnc3Cl)nn1)CC2
[reply] 15.4
